# Assay system: pooled human IgG
Readout type: Enzyme Activity Endpoint Assay: IgG
Report the figure along with its unit, number first.

For orientation, consider the following solved cases.
>>> endpoint_result("PRT-41 (protein) MANQEIRYSEVTPYHVTSVWTKGVTPPANFTQGEDVFHAPYVANQGWYDITKTFNGKDDLLCGAATAGNMLHWWFDQNKDYIDRYLEEHPEKQKINFNGEQMFDVKEAIDTKNSQLDSKLFEYFKEKAFPYLSTKHLGVFPDLVLDMFINGYRLSLTNHGPTPVKEGSKDPRGGIFDAVFTRGDQSKLLTSRHDFKEKNLKEISDLIKKELTEGKALGLSHTYANVRINHVINLWGADFDSNGNLKAIYVTDSDSNASIGMKKYFVGVNSAGKVAISAKEIKEDNIGAQVLGLFTLSTGQDSWNQTN")
"19 ng/µL"
>>> endpoint_result("PRT-51 (protein) MANQEIRYSEVTPYHVTSVWTKGVTPPANFTQGEDVFHAPYVANQGWYDINKTFNGKDDLLCGAATAGNMLHWWFDQNKDYIDRYLKKHPEKAKINFNGEQMFDVKEAIDTKNDQLDSKLFEYFKEKAFPYLSTKHLGVFPDLVLDMFINGYRLSLTNHGPTPVKEGSKDPRGGFFDDVFTRGDQSKLLTSRHDFKEKNLEEISDLIKKELTEGKALGLSHTYANVRINHVINLWGADFDENGNLKAIYVTDSDSNASIGMKRYFVGVNSAGKVAISAKEIKEDNIGAQVLGLFTLSTGQDSWNQTN")
"118 ng/µL"
>>> endpoint_result("PRT-579 (protein) MANQEIRYSKATPSHITSVWTKGVTPPENFIYNEDVLHAPYLPNQGWYDITKTFNGKDDLLCGAATAGNMLHWWFDQNKEQIERYLKEHPEKQKINFNGEQMFDVKEAIDTKDSQTNSKLFEYFKDKAFPYLSTKHLGVFPDHVIDMFINGYRLSLTNHGPTPVKEQNKDPRGGIFDAVFTRGDQSKLLTSRHDFKEKTLNEISQLIKQELTEGKALGLSHTYANVRINHVINLWGADFNAEGNLEAIYVTDSDSNASIGMKKYYVGVNSAGKVAISAKEIEGDNIGAQVLGLFTLSTGQDIWQQTNLEHHHHHH")
"0 ng/µL"

# evaluate next
Prompt: Return value of Enzyme Activity Endpoint Assay: IgG for input PRT-601 (protein) MANQEIRYSEETPSTVTSVWTKGVTPPTDFIQNEDVLHAPYIANQGWYDITKTFNGKDDLLCGAATAGNMLHWWFDQNKEQIKNYLKKHPEKQKINFNGEQMFDVKEAIDTKNHQLDSALFEYFKDKAFPYLSTKHLGVFPDHVIDMFINGYRLSLTNHGPTPVKRGTKDPRGGIFDAVFTRGDQSKLLTSRHDFKEKNLNEISDLIKKELTEGKALGLSHTYANVRINHVINLWGADFNANGNLEAIYVTDSDSNASIGMKKYFVGVNSAGKVAISAKEIKGDNIGAQVLGLFTLSTGQDSWNQTNLEHHHHHH , no commentary.
Completion: 0 ng/µL
